Experiment: Absorption spectra obtained in toluene at room temperature
Type: physicochemical
Details: figure legends (FIG. 1, 2, 4, 5); toluene at room temperature, normalized at the B bands
From the text: Absorption Spectra. The spectral properties of interest in the chlorins include the position of the long-wavelength Qy transition, the intensity of the Qy transition, and the fluorescence quantum yield of the chlorin. The intensity of the Qy transition can be assessed by the measured molar absorption coefficient; however, comparisons of such values are somewhat unreliable given the experimental variability encountered upon handling small quantities of materials. […]
Entries and their measured Qy band follow.
metricName: Qy band

{"compound": "CC(=O)c1cc2[n]3c1C=C1CC(C)(C)C(=N1)C=c1cc(C#C[Si](C(C)C)(C(C)C)C(C)C)c([n]1[Zn]3)=CC1=NC(=C2)C=C1", "recordedResult": "655 nm"}
{"compound": "Cc1ccc(-c2c3nc(c(-c4c(C)cc(C)cc4C)c4cc5c([nH]4)c(c4nc(cc6ccc2[nH]6)C(C)(C)C4)CC5=O)C=C3)cc1", "recordedResult": "660 nm"}
{"compound": "CC(=O)c1cc2[n]3c1=CC1=NC(=Cc4ccc([n]4[Zn]3)C(c3ccc(C)cc3)=C3C=CC(=N3)C=2c2c(C)cc(C)cc2C)C(C)(C)C1", "recordedResult": "632 nm"}
{"compound": "Cc1cc(C)c(C2=c3cc(C#C[Si](C(C)C)(C(C)C)C(C)C)c4[n]3[Zn][n]3c(cc(C#C[Si](C(C)C)(C(C)C)C(C)C)c3C=C3C=CC2=N3)C=C2N=C(C=4)CC2(C)C)c(C)c1 [ZnC-E^3M^10E^13]", "recordedResult": "646 nm"}

----------
assay: Absorption spectra obtained in toluene at room temperature; assay type: physicochemical; details: Table 3; zinc chlorins in toluene at room temperature
Entries and their measured λmax (nm), B follow.
metricName: λmax (nm), B

{"compound": "CC(=O)c1cc2[n]3c1C=C1CC(C)(C)C(=N1)C=c1cc(C#C[Si](C(C)C)(C(C)C)C(C)C)c([n]1[Zn]3)=CC1=NC(=C2c2c(C)cc(C)cc2C)C=C1 [ZnC-E^3M^10A^13]", "unitAbbrev": "nm", "recordedResult": 428}
{"compound": "CC(=O)c1cc2[n]3c1C=C1CC(C)(C)C(=N1)C=c1ccc([n]1[Zn]3)=CC1=NC(=C2c2c(C)cc(C)cc2C)C=C1 [ZnC-M^10A^13]", "unitAbbrev": "nm", "recordedResult": 418}
{"compound": "CC(=O)c1cc2[n]3c1C=C1CC(C)(C)C(=N1)C=c1cc(C#C[Si](C(C)C)(C(C)C)C(C)C)c([n]1[Zn]3)=CC1=NC(=C2)C=C1", "unitAbbrev": "nm", "recordedResult": 428}

----------
experiment: Absorption spectra obtained in toluene at room temperature; assay type: physicochemical; settings: Table 3; zinc chlorins in toluene at room temperature
Entries and their measured B/Qy ratio follow.

{"molecule": "Cc1cc(C)c(C2=c3cc(C#C[Si](C(C)C)(C(C)C)C(C)C)c4[n]3[Zn][n]3c(ccc3C=C3N=C(C=4)CC3(C)C)C=C3C=CC2=N3)c(C)c1 [ZnC-M^10E^13]", "B/Qy ratio": 2.3}
{"molecule": "CC(=O)c1cc2[n]3c1C=C1CC(C)(C)C(=N1)C=c1ccc([n]1[Zn]3)=CC1=NC(=C2c2c(C)cc(C)cc2C)C=C1 [ZnC-M^10A^13]", "B/Qy ratio": 2.2}
{"molecule": "CC(C)[Si](C#Cc1cc2[n]3c1C=C1CC(C)(C)C(=N1)C=c1cc(C#C[Si](C(C)C)(C(C)C)C(C)C)c([n]1[Zn]3)=CC1=NC(=C2)C=C1)(C(C)C)C(C)C [ZnC-E^3E^13]", "B/Qy ratio": 1.4}
{"molecule": "CC(=O)c1cc2[n]3c1C=C1CC(C)(C)C(=N1)C=c1cc(C#C[Si](C(C)C)(C(C)C)C(C)C)c([n]1[Zn]3)=CC1=NC(=C2c2c(C)cc(C)cc2C)C=C1 [ZnC-E^3M^10A^13]", "B/Qy ratio": 1.5}
{"molecule": "C=Cc1cc2[n]3c1C=C1C=CC(=N1)C(c1c(C)cc(C)cc1C)=c1ccc([n]1[Zn]3)=CC1=NC(=C2)C(C)(C)C1 [ZnC-V^3M^10]", "B/Qy ratio": 3.3}
{"molecule": "CC(=O)c1cc2[n]3c1C=C1CC(C)(C)C(=N1)C=c1cc(C#C[Si](C(C)C)(C(C)C)C(C)C)c([n]1[Zn]3)=CC1=NC(=C2)C=C1 [ZnC-E^3A^13]", "B/Qy ratio": 1.2}
{"molecule": "Cc1cc(C)c(C2=c3cc(C#C[Si](C(C)C)(C(C)C)C(C)C)c4[n]3[Zn][n]3c(cc(C#C[Si](C(C)C)(C(C)C)C(C)C)c3C=C3C=CC2=N3)C=C2N=C(C=4)CC2(C)C)c(C)c1 [ZnC-E^3M^10E^13]", "B/Qy ratio": 1.6}
